Readings of kobs for the listed compounds
system: KRAS^G12C (Homo sapiens, UniProt P01116, G12C)
test summary: LC-MS occupancy measurements (KI and kinact determination)
Type: binding
assay conditions: 80 μM inhibitor, 5 μM KRASG12C, duplicated experiments
Just the number please, in s⁻¹, no unit attached.

compound | kobs, s⁻¹
O=C(N1CCN(c2ncnc3cc(-c4c(O)cccc4F)c(Cl)cc23)CC1)n1ccnc1 | 0.00033
O=C(C1CN1)N1CCN(c2ncnc3cc(-c4c(O)cccc4F)c(Cl)cc23)CC1 (stereo not shown) | 0.00007
CN1CCCC1COc1nc(N2CCN(C(=O)C3CN3)CC2)c2cc(Cl)c(-c3c(O)cccc3F)cc2n1 (stereo not shown) | 0.00072

q: Form field: kobs recorded for CN1CCCC1COc1nc(N2CCN(C(=O)n3ccnc3)CC2)c2cc(Cl)c(-c3c(O)cccc3F)cc2n1 (stereo not shown) with KRAS^G12C (Homo sapiens, UniProt P01116, G12C) (enter value)
a: 0.00009
